Task for the reader: assign each of the following compounds its reported logP.
Quick one: just the number, no unit, thanks!

**Q:** Retrieve logP measured for "NCc1ccccc1" and print it.
**A:** 1.1

**Q:** Retrieve logP measured for CN1CCOC(c2ccccc2)c2ccccc2C1 (centres undefined) and print it.
**A:** 3.02

**Q:** Retrieve logP measured for CC(N)c1ccccc1 (centres undefined) and print it.
**A:** 1.45

**Q:** Retrieve logP measured for "NC(=O)NN=Cc1ccc([N+](=O)[O-])o1" and print it.
**A:** 0.74

**Q:** Retrieve logP measured for "CC(=O)O[C@]1(C(=O)CO)CC[C@H]2[C@@H]3CCC4=CC(=O)CC[C@]4(C)[C@H]3[C@@H](O)C[C@@]21C" and print it.
**A:** 2.17

**Q:** Retrieve logP measured for NS(=O)(=O)c1cc(C2(O)NC(=O)c3ccccc32)ccc1Cl (centres undefined) and print it.
**A:** 1.17

**Q:** Retrieve logP measured for "Cc1cncc(C)c1" and print it.
**A:** 1.74

**Q:** Retrieve logP measured for "Cc1ccccc1CN" and print it.
**A:** 1.62

**Q:** Retrieve logP measured for "Cc1cccc(CN)c1" and print it.
**A:** 1.82

**Q:** Retrieve logP measured for "Cc1cc(C)cc(N)c1" and print it.
**A:** 2.09

**Q:** Retrieve logP measured for "C=C[C@H]1CN2CC[C@H]1C[C@@H]2[C@@H](O)c1ccnc2ccc(OC)cc12" and print it.
**A:** 2.77

**Q:** Retrieve logP measured for "Cc1ccnc(C)c1" and print it.
**A:** 1.58

**Q:** Retrieve logP measured for "Nc1ccccn1" and print it.
**A:** 0.4

**Q:** Retrieve logP measured for "CCCCNc1ccc(C(=O)OCCN(C)C)cc1" and print it.
**A:** 3.46
